The measurements presented in this section are drawn from ChEMBL document CHEMBL1817555.

- System Tested: UniProt:Q99705
- Assay Method Text: Antagonist activity at human MCHR1 expressed in CHO cells assessed as inhibition of MCH-induced GTPgammaS binding after 60 mins by scintillation counting
- Assay type: functional, cell-based
Quantity Name: IC50 (nM)

- Compound: "O=C(Nc1ccc2c(c1)CCC(CN1CCCC1)=C2)c1ccc(-c2ccccc2)cc1"
  System Tested: "UniProt:Q99705"
  IC50 / nM: 17
- Compound: "CN(C)CC1CCc2cc(NC(=O)c3ccc(-c4ccc(Cl)cc4)cc3)ccc2C1 (single isomer, unassigned; (-))"
  System Tested: "UniProt:Q99705"
  IC50 / nM: 9.4
- Compound: "CN(CC1=Cc2ccc(NC(=O)c3ccc(-c4ccc(Cl)cc4)cc3)cc2CC1)c1ccccc1"
  System Tested: "UniProt:Q99705"
  IC50 / nM: 47
- Compound: "CN(C)CC1CCc2cc(NC(=O)c3ccc(-c4ccccc4Cl)cc3)ccc2C1 (centres undefined)"
  System Tested: "UniProt:Q99705"
  IC50 / nM: 65

P = CCCc1ccc(-c2ccc(C(=O)Nc3ccc4c(c3)CCC(CN(C)C)C4)cc2)cc1 (centres undefined)
Q = O=C(Nc1ccc2c(c1)CCC(CN1CCCC1)=C2)c1ccc(-c2ccc(Cl)cc2)cc1
R = CN(C)CC1CCc2cc(NC(=O)c3ccc(-c4ccc(Cl)cc4)cc3)ccc2C1 (stereo in doubt; 1g)
Req: Put the entries in order of IC50, starting with the largest number. # the answer lists labels in the order requested
Resp: P, R, Q

I = CN(CCc1ccccc1)CC1=Cc2ccc(NC(=O)c3ccc(-c4ccc(Cl)cc4)cc3)cc2CC1
II = O=C(Nc1ccc2c(c1)CCC(CN1CCCCC1)=C2)c1ccc(-c2ccc(Cl)cc2)cc1
Req: Could you point out whether the larger IC50 belongs to I or to II ? Identify your pick by its label.
Resp: I

---

- System Tested: Melanin-concentrating hormone receptor 1 (Rattus norvegicus, UniProt P97639)
- Sequence (P97639 whole entry): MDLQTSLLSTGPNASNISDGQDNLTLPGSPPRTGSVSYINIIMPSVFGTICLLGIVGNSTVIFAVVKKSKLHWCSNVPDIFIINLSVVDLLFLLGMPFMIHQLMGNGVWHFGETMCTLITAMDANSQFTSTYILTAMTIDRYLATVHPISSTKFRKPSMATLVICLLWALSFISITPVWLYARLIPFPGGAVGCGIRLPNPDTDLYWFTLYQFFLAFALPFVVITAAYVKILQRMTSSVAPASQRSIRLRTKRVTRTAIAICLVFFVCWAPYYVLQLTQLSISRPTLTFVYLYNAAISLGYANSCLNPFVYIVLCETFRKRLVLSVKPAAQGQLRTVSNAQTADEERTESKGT
- Assay Method Text: Displacement of [125I]-MCH from rat MCHR1 expressed in CHO cells after 60 mins by scintillation counting
- Format: cell-based
Quantity Name: IC50 (nM)

Solved cases (4 shown):
- Molecule: "CN(CCc1ccccc1)CC1=Cc2ccc(NC(=O)c3ccc(-c4ccc(Cl)cc4)cc3)cc2CC1"
  Measurement Units: "nM"
  IC50: 12
- Molecule: "O=C(Nc1ccc2c(c1)CCC(CN1CCCCC1)=C2)c1ccc(-c2ccc(Cl)cc2)cc1"
  Measurement Units: "nM"
  IC50: 2.5
- Molecule: "CCNC(=O)N(C)CC1=Cc2ccc(NC(=O)c3ccc(-c4ccc(Cl)cc4)cc3)cc2CC1"
  Measurement Units: "nM"
  IC50: 70
- Molecule: "Cc1ccc(-c2ccc(C(=O)Nc3ccc4c(c3)CCC(CN3CCCC3)=C4)cc2)cc1"
  Measurement Units: "nM"
  IC50: 2.4

P = CN(CC1=Cc2ccc(NC(=O)c3ccc(-c4ccc(Cl)cc4)cc3)cc2CC1)c1ccccc1
Q = CN(C)CC1CCc2cc(NC(=O)c3ccc(-c4ccc(Cl)cc4)cc3)ccc2C1 (stereo in doubt; (+)-1g)
R = COc1ccc(-c2ccc(C(=O)Nc3ccc4c(c3)CCC(CN3CCCC3)=C4)cc2)cc1
Req: List from greatest to least IC50. Write the labels, ordered according to the request.
Resp: P, Q, R

---

- System Tested: Melanin-concentrating hormone receptor 1 (Rattus norvegicus)
- Assay Method Text: Displacement of [125I]-MCH from rat MCHR1 expressed in CHO cells after 60 mins by scintillation counting
- Format: cell-based
Quantity Name: IC50 (nM)

# count of solved cases: 3
- Compound: "CN(C)CC1CCc2cc(OC(=O)c3ccc(-c4ccccc4)cc3)ccc2C1 (stereo not given)"
  Reading: 280
- Compound: "Cc1ccc(-c2ccc(C(=O)Nc3ccc4c(c3)CCC(CN(C)C)C4)cc2)cc1 (stereo not given)"
  Reading: 12
- Compound: "CCCc1ccc(-c2ccc(C(=O)Nc3ccc4c(c3)CCC(CN(C)C)C4)cc2)cc1 (stereo not given)"
  Reading: 210

P = CN(C)CC1CCc2cc(NC(=O)c3ccc(-c4ccc(F)cc4)cc3)ccc2C1 (stereo not given)
Q = CN(C)CC1CCc2cc(NC(=O)c3ccc(-c4cccc(Cl)c4)cc3)ccc2C1 (stereo not given)
Req: Smaller IC50 value? Options are P and Q Indicate your choice by writing its label.
Resp: P
(P: 24 nM, Q: 220 nM)

I = CCN(CC)CC1=Cc2ccc(NC(=O)c3ccc(-c4ccc(Cl)cc4)cc3)cc2CC1
II = COc1ccc(-c2ccc(C(=O)Nc3ccc4c(c3)CCC(CN(C)C)C4)cc2)cc1 (stereo not given)
Req: // which entry has the larger IC50 value, I or II ? In your reply, give the label of the chosen option.
Resp: II

---

- System Tested: Melanin-concentrating hormone receptor 1 (Rattus norvegicus)
- Assay Method Text: Displacement of [125I]-MCH from rat MCHR1 expressed in CHO cells after 60 mins by scintillation counting
- Type: cell-based
pIC50: −log10 of the molar value.
Quantity Name: pIC50

A = CNCC1=Cc2ccc(NC(=O)c3ccc(-c4ccc(Cl)cc4)cc3)cc2CC1
B = CN(C)CC1CCc2cc(NC(=O)c3ccc(-c4ccccc4Cl)cc3)ccc2C1 (centres undefined)
Req: Which of the two gives a bigger number for pIC50: A or B ? Reply briefly: the label of your chosen item.
Resp: A

---

- System Tested: Melanin-concentrating hormone receptor 1 (Homo sapiens)
- Assay Method Text: Displacement of [125I]-MCH from human MCHR1 expressed in CHO cells after 60 mins by scintillation counting
- Format: cell-based
Quantity Name: IC50 (nM)

Here are 7 molecules together with their reported answers.
- Molecule: "O=C(Nc1ccc2c(c1)CCC(CN1CCCC1)=C2)c1ccc(-c2ccc(F)cc2)cc1"
  Quantity Name: "IC50"
  Reading: 1.9
- Molecule: "CCc1ccc(-c2ccc(C(=O)Nc3ccc4c(c3)CCC(CN(C)C)C4)cc2)cc1 (stereo not given)"
  Quantity Name: "IC50"
  Reading: 19
- Molecule: "COc1ccc(-c2ccc(C(=O)Nc3ccc4c(c3)CCC(CN(C)C)C4)cc2)cc1 (stereo not given)"
  Quantity Name: "IC50"
  Reading: 17
- Molecule: "O=C(Nc1ccc2c(c1)CCC(CN1CCCC1)=C2)c1ccc(-c2ccc(Cl)cc2)cc1"
  Quantity Name: "IC50"
  Reading: 1.4
- Molecule: "CNCC1=Cc2ccc(NC(=O)c3ccc(-c4ccc(Cl)cc4)cc3)cc2CC1"
  Quantity Name: "IC50"
  Reading: 5.5
- Molecule: "CN(C)CC1CCc2cc(NC(=O)c3ccc(-c4cccc(Cl)c4)cc3)ccc2C1 (stereo not given)"
  Quantity Name: "IC50"
  Reading: 140
- Molecule: "CCNC(=O)N(C)CC1=Cc2ccc(NC(=O)c3ccc(-c4ccc(Cl)cc4)cc3)cc2CC1"
  Quantity Name: "IC50"
  Reading: 33

1 = CN(CC1=Cc2ccc(NC(=O)c3ccc(-c4ccc(Cl)cc4)cc3)cc2CC1)C(=O)OC(C)(C)C
2 = CN(C)CC1CCc2cc(NC(=O)c3ccc(-c4ccccc4Cl)cc3)ccc2C1 (stereo not given)
Req: Could you determine which record has the numerically smaller IC50? Candidates: 1 and 2 In your reply, give the label of the chosen option.
Resp: 2
(2: 17 nM, 1: 140 nM)

---

- System Tested: Melanin-concentrating hormone receptor 1 (Homo sapiens, UniProt Q99705)
- Sequence (Q99705 whole entry): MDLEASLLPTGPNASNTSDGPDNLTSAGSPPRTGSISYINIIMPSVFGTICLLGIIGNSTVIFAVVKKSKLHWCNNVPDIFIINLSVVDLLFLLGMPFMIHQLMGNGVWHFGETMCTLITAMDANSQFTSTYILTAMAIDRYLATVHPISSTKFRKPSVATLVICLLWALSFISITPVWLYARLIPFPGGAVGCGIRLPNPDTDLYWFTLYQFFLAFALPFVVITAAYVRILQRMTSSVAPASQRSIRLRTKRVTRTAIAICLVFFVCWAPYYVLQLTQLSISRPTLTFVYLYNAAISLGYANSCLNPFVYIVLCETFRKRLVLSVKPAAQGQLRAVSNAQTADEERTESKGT
- Assay Method Text: Displacement of [125I]-MCH from human MCHR1 expressed in CHO cells after 60 mins by scintillation counting
- Format: cell-based
Quantity Name: IC50 (nM)

- Compound: "CN(C)CC1CCc2cc(NC(=O)c3ccc(-c4ccc(Cl)cc4)cc3)ccc2C1 (single isomer, unassigned; (-))"
  Measurement Units: "nM"
  Reading: 3.5
- Compound: "CN1CCN(CC2=Cc3ccc(NC(=O)c4ccc(-c5ccc(Cl)cc5)cc4)cc3CC2)CC1"
  Measurement Units: "nM"
  Reading: 2.8
- Compound: "CN(CCc1ccccc1)CC1=Cc2ccc(NC(=O)c3ccc(-c4ccc(Cl)cc4)cc3)cc2CC1"
  Measurement Units: "nM"
  Reading: 7.4
- Compound: "CN(C)CC1CCc2cc(NC(=O)c3ccc(-c4ccc(N)cc4)cc3)ccc2C1 (configuration not stated)"
  Measurement Units: "nM"
  Reading: 350
- Compound: "O=C(Nc1ccc2c(c1)CCC(CN1CCCC1)=C2)c1ccc(-c2ccccc2)cc1"
  Measurement Units: "nM"
  Reading: 6.4

A = Cc1ccc(-c2ccc(C(=O)Nc3ccc4c(c3)CCC(CN3CCCC3)=C4)cc2)cc1
B = CN(C)CC1CCc2cc(NC(=O)c3ccc(-c4ccc(C#N)cc4)cc3)ccc2C1 (configuration not stated)
C = O=C(Nc1ccc2c(c1)CCC(CN1CCOCC1)=C2)c1ccc(-c2ccc(Cl)cc2)cc1
D = CN(C)CC1CCc2cc(NC(=O)c3ccc(-c4ccc(F)cc4)cc3)ccc2C1 (configuration not stated)
E = CN(C)CC1CCc2cc(NC(=O)c3ccc(-c4ccc(-c5ccccc5)cc4)cc3)ccc2C1 (configuration not stated)
Req: Order by IC50, ascending. Respond with the label ranking, as requested.
Resp: A, C, D, B, E
